Experiment: Plasma half-life (i.v./i.p. pharmacokinetics, Table 23)
Type: in vivo, Rats
Conditions: rat, iv, 3 mg/kg, 3MPK, 0-4 hr i.v., read-out: AUC (0-last h) i.v. XMPK
quantity: AUC(0-t) (ng·h/mL)
Give your result in ng·h/mL as a bare value.

Give the measured AUC(0-t) of "CS(=O)(=O)Nc1ccc(OC[C@@H](O)CN2CCN(c3ccc(Cl)c(Cl)c3)CC2)cc1" .
2350

====

Biological target: NMDA receptor (NR1 + NR2 subunits) (Rattus norvegicus, UniProt P35439+Q00960)
Sequence (Q00960 27-1482, other chains not shown): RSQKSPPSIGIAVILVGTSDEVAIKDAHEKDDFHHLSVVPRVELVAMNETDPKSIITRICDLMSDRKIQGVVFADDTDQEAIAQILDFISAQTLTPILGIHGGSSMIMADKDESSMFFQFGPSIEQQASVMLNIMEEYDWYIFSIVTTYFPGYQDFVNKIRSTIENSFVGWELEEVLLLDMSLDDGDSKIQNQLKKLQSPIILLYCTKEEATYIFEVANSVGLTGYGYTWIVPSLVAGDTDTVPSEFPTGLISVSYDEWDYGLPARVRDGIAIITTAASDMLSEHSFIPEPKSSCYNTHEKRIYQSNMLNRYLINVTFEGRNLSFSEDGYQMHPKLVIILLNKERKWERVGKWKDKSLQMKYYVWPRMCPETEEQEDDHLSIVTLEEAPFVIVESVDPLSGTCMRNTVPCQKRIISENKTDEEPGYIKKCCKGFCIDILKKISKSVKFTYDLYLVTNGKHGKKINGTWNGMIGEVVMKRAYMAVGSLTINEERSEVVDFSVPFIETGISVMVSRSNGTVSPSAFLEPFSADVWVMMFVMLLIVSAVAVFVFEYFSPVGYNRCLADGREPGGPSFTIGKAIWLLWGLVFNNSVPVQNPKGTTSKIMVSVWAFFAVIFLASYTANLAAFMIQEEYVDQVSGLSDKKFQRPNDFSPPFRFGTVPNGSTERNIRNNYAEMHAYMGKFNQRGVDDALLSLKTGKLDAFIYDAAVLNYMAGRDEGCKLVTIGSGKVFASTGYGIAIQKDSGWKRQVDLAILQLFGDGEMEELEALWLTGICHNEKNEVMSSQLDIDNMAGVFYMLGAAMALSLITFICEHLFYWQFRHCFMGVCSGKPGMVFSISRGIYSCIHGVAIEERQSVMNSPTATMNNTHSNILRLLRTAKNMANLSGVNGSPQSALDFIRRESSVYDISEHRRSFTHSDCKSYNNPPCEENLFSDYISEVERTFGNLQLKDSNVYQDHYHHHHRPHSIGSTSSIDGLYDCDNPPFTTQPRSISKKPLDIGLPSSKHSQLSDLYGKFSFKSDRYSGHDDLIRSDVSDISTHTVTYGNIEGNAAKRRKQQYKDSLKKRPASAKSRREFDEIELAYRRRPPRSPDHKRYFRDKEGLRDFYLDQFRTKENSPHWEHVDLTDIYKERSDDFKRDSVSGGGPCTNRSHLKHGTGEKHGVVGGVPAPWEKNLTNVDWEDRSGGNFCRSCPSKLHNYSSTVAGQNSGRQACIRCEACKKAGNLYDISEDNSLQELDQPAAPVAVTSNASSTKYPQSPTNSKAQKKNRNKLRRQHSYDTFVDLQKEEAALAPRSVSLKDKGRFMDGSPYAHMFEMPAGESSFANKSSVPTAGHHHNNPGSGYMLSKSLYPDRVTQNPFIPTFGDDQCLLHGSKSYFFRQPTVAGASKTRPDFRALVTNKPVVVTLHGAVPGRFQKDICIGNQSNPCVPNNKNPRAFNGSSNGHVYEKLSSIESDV
Experiment: Two electrode voltage clamp recording from Xenopus laevis oocytes (pH dependence of NMDA antagonism)
Assay type: cell-based
Conditions: pH 6.9; Table 22; read-out: IC50 pH 6.9
quantity: pIC50
pIC50 is defined as minus the log10 of a concentration measured in mol/L.

Oc1ccc(OC[C@@H](O)CN2CCN(c3ccc(Cl)cc3)CC2)cc1 [drawing 775] ... 7.13
O[C@H](COc1ccc2[nH]c(=S)[nH]c2c1)CN1CCN(c2ccc(Cl)cc2)CC1 ... 7.80
O[C@H](COc1ccc2[nH]ncc2c1)CN1CCN(c2ccc(Cl)cc2)CC1 ... 6.39
O=c1[nH]c2ccc(OC[C@@H](O)CN3CCN(c4ccc(Cl)cc4)CC3)cc2[nH]1 [drawing 781] ... 7.85

Kindly consider the entry below.
Give the measured pIC50 of "O=c1ccc2cc(OC[C@@H](O)CN3CCN(c4ccc(Cl)cc4)CC3)ccc2[nH]1" .
7.16

====

Assay: Plasma half-life (i.v./i.p. pharmacokinetics, Table 23)
Type: in vivo, Rats
Details: rat, iv, 1 mg/kg, 1 MPK, 0-4 hr i.v., read-out: AUC (0-last h) i.v. XMPK
quantity: AUC(0-t) (ng·h/mL)
Give your result in ng·h/mL as a bare value.

Recorded results for 3 molecules are shown here.
Cc1ccc(N2CCN(C[C@H](O)COc3ccc4[nH]c(=O)oc4c3)CC2)cc1 [drawing 793] ... 364
Oc1ccc(OC[C@@H](O)CN2CCN(c3ccc(Cl)cc3)CC2)cc1 [drawing 791] ... 187
O=c1[nH]c2ccc(OC[C@@H](O)CN3CCN(c4ccc(Cl)cc4)CC3)cc2o1 [drawing 792] ... 217

Kindly consider the entry below.
Give the measured AUC(0-t) of NC(=O)Nc1ccc(OC[C@@H](O)CN2CCN(c3ccc(Cl)cc3)CC2)cc1 [drawing 786] .
1030

====

Experiment: Oral absorption (p.o. pharmacokinetics, Table 25)
Format: in vivo, Rats
Details: rat, plasma, 10 mg/kg, 10 MPK, 0-8 hr p.o., read-out: % Absorbed (% F)
Reported bioavailability by item:
Give your result in % as a bare value.

Recorded results for 3 compounds are shown here.
NC(=O)Nc1ccc(OC[C@@H](O)CN2CCN(c3ccc(Cl)cc3)CC2)cc1 [drawing 810] ... 146
O=c1[nH]c2ccc(OC[C@@H](O)CN3CCN(c4ccc(Cl)cc4)CC3)cc2o1 [drawing 814] ... 6.2
Cc1ccc(N2CCN(C[C@H](O)COc3ccc4[nH]c(=O)oc4c3)CC2)cc1 [drawing 813] ... 7.9

Kindly consider the entry below.
Give the measured bioavailability of Oc1ccc(OC[C@@H](O)CN2CCN(c3ccc(Cl)cc3)CC2)cc1 [drawing 815] .
3.3
